System: green foxtail (Setaria viridis, SETVI)
Test: Post-emerge test, greenhouse herbicide activity screening
Assay type: in vivo
Details: 250 g ai/ha; phytotoxicity rating 0-100 (0 no damage, 100 complete death), 14 days after application
readoutType: Post-emerge Herbicidal Activity SETVI
Please reply with the value in numeric form only.

Worked examples, 3 molecules total:
molecule="COC(=O)C(=O)Nc1c(OC)c(Cl)cc(F)c1-n1c(=O)cc(C(F)(F)F)n(C)c1=O [2-15]" testresult=0
molecule="COc1c(Cl)cc(F)c(-n2c(=O)cc(C(F)(F)F)n(C)c2=O)c1N1CCCC1 [Compound 1-32]" testresult=0
molecule="CCCc1ccc(C(=O)N(C(=O)c2ccc(CCC)cc2)c2c(OC)c(Cl)cc(F)c2-n2c(=O)cc(C(F)(F)F)n(C)c2=O)cc1 [2-29]" testresult=50

Reported Post-emerge Herbicidal Activity SETVI, molecule COc1c(Cl)cc(F)c(-n2c(=O)cc(C(F)(F)F)n(C)c2=O)c1NS(=O)(=O)c1ccc(C)cc1 [2-26] : ____
0

Similarly, COC(=O)C=CCOc1c(Cl)cc(F)c(-n2c(=O)cc(C(F)(F)F)n(C)c2=O)c1N [Compound 1-20] ?
60

Subsequent entry: Cn1c(C(F)(F)F)cc(=O)n(-c2c(F)cc(Cl)c(OCC#N)c2N)c1=O [Compound 1-18]
70

Would you kindly repeat that for CCOC(=O)COc1c(Cl)cc(F)c(-n2c(=O)cc(C(F)(F)F)n(C)c2=O)c1N [Compound 1-59] ?
70

And the next one, COc1c(Cl)cc(F)c(-n2c(=O)cc(C(F)(F)F)n(C)c2=O)c1N(C(=O)C1CC1)C(=O)C1CC1 [2-18] ?
0

====

Tested on: large crabgrass (Digitaria sanguinalis, DIGSA)
Test: Pre-emerge test, greenhouse herbicide activity screening
Type: in vivo
Settings: 250 g ai/ha; rating scale 0-100, 14 days after application
readoutType: Pre-emerge herbicidal activity, phytotoxicity rating DIGSA

Below, 5 compounds whose answers are already recorded.
compound="CCCCCOC(=O)C(Cl)Cc1c(OC)c(Cl)cc(F)c1-n1c(=O)cc(C(F)(F)F)n(C)c1=O (single isomer, unassigned) [14-11]" experimentalsystem="large crabgrass (Digitaria sanguinalis, DIGSA)" testresult=100
compound="COc1c(Cl)cc(F)c(-n2c(=O)cc(C(F)(F)F)n(C)c2=O)c1CC(C)(Cl)C(=O)OCC(F)(F)C(F)F (centres unmarked)" experimentalsystem="large crabgrass (Digitaria sanguinalis, DIGSA)" testresult=99
compound="CCCCCCOC(=O)C(C)(Cl)Cc1c(OC)c(Cl)cc(F)c1-n1c(=O)cc(C(F)(F)F)n(C)c1=O (centres unmarked)" experimentalsystem="large crabgrass (Digitaria sanguinalis, DIGSA)" testresult=90
compound="COc1c(Cl)cc(F)c(N2C(=O)C3CCCCN3C2=S)c1NC(=O)c1ccc2ccccc2c1 (centres unmarked)" experimentalsystem="large crabgrass (Digitaria sanguinalis, DIGSA)" testresult=10
compound="Nc1c(O)c(Cl)cc(F)c1N1C(=O)C2CCCCN2C1=S (single isomer, unassigned)" experimentalsystem="large crabgrass (Digitaria sanguinalis, DIGSA)" testresult=30

Any idea what Pre-emerge herbicidal activity, phytotoxicity rating DIGSA was measured for CCCOC(=O)C(Cl)Cc1c(OC)c(Cl)cc(F)c1-n1c(=O)cc(C(F)(F)F)n(C)c1=O (single isomer, unassigned) ?
100

Same question, COc1c(Cl)cc(F)c(-n2c(=O)cc(C(F)(F)F)n(C)c2=O)c1CC(Cl)C(=O)OCCC#N (centres unmarked) this time
50
